- studyTarget: T1, Human FM3 (human, UniProt Q9HB89 1-426)
- T1 construct: whole, on cells; Assayed as the membrane fraction of FM3-expressing CHO cells (1.2 mg/mL protein); also called NMUR1; FM3 receptor
- T1 sequence (looked up): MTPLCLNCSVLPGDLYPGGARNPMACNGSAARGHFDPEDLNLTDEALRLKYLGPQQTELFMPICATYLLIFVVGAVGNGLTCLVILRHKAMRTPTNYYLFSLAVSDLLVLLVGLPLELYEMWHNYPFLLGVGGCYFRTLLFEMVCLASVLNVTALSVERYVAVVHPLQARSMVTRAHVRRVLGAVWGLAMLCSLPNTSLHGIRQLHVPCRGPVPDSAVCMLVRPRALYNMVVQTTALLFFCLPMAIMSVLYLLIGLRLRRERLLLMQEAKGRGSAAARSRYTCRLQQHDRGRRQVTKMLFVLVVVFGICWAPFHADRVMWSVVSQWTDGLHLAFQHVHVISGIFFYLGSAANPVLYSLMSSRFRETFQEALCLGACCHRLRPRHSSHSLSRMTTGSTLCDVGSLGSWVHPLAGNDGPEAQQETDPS
- testProtocol: displacement of 125I-NMU8 from human FM3 CHO membrane fraction; IC50 relative to NMU-8;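 further: binding reaction run for 70 min at 25 °C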
Non-standard residues stand in square brackets, D forms with d. No end group written: not given here. *: point of attachment. Acetyl(2-(piperazin-1-yl)) = O=C(CN1CCNCC1)*; PEG 30 kDa = methoxypolyethylene glycol 30k; βAla = NCCC(=O)O
endpointName: IC50 ratio

# count of solved cases: 2
binder	measured
{Acetyl(2-(piperazin-1-yl))}-YFRFRPRN-NH2 (SMILES N=C(N)NCCC[C@H](NC(=O)[C@H](Cc1ccccc1)NC(=O)[C@H](Cc1ccc(O)cc1)NC(=O)CN1CCNCC1)C(=O)N[C@@H](Cc1ccccc1)C(=O)N[C@@H](CCCNC(=N)N)C(=O)N1CCC[C@H]1C(=O)N[C@@H](CCCNC(=N)N)C(=O)N[C@@H](CC(N)=O)C(N)=O, also called NpipAc-Arg3-NMU-8) [2-(piperazin-1-yl)acetyl-Arg3-NMU8 (Compound 10)]	0.27 ratio to NMU-8 (=1)
{PEG 30 kDa-βAla}-YFQFRPRN-NH2 (also called PEG-NH-β-Ala0,Gln3-NMU-8) [PEG30k-NH-β-Ala0,Gln3-NMU-8 (Compound B)]	1.8 ratio to NMU-8 (=1)

Q: Read off the recorded IC50 ratio for [βAla]YYLFRPRN-NH2 (N-terminus assumed; SMILES CC(C)C[C@H](NC(=O)[C@H](Cc1ccc(O)cc1)NC(=O)[C@H](Cc1ccc(O)cc1)NC(=O)CCN)C(=O)N[C@@H](Cc1ccccc1)C(=O)N[C@@H](CCCNC(=N)N)C(=O)N1CCC[C@H]1C(=O)N[C@@H](CCCNC(=N)N)C(=O)N[C@@H](CC(N)=O)C(N)=O, also called β-Ala0,Try2-NMU-8) [β-Ala0,Tyr2-NMU-8 (Compound 5)]
Ans: 0.44 ratio to NMU-8 (=1)
